Test system: 407 cancer cell lines
assayText: Cell viability of cancer cell lines (IC50), CellTiter-Glo Viability Assay, 96 h
Type: cell-based
runConditions: Homo sapiens, Detroit 562, 96 h, Detroit 562 cells, 96 h; read-out: Absolute IC50
measurementName: IC50

Form: compound = `Cc1nn(-c2nc(-c3ccc(C(F)(F)F)cc3)c(SC(C)C)s2)c(C(=O)O)c1-c1cccc(F)c1` ; IC50 = > 30 µM

* * *

System: 407 cancer cell lines
assayText: Cell viability of cancer cell lines (IC50), CellTiter-Glo Viability Assay, 96 h
Format: cell-based
runConditions: Homo sapiens, SU-DHL-6, 96 h, SU-DHL-6 cells, 96 h; read-out: Absolute IC50
measurementName: IC50 (nM)
Give the quantity in nM, number only.

Lab book: IC50 of `Cc1nn(-c2nc(-c3ccc(C(F)(F)F)cc3)c(SC(C)C)s2)c(C(=O)O)c1-c1cccc(F)c1` noted as 1050

Entry source: patent US20210278408A1
